Test system: CAKI-1 renal
protocol_details: NCI-60 one-dose screen, 48 h (100 = growth as untreated, 0 = no growth, -100 = all killed)
conditions_used: 10 µM unless noted
The panel holds about 83,000 compounds, 20% with a hit somewhere; the sample as a whole holds those more often.
If the reported growth equals or exceeds 50%, assign Y. If not, assign N.

These solved cases illustrate the format of a correct answer.
- compound: "O=C(N/N=C/c1ccc(O)cc1O)c1cccc(Nc2ccnc(C(F)(F)F)c2)c1"
  qualitative_label: "N"
- compound: "Cc1ccc(Cc2cnc(NC(=O)c3cc(C)oc3C)s2)cc1"
  qualitative_label: "N"
- compound: "O=C1C(=C(O)c2ccccc2)C(=O)c2ccccc21"
  qualitative_label: "Y"
- compound: "NC(=O)c1c(NC(=O)/C=C/c2cccs2)sc2c1CCC(=O)C2"
  qualitative_label: "N"
- compound: "N#C/C(=C\\c1ccccc1Cl)c1cc2ccccc2[nH]1"
  qualitative_label: "Y"
- compound: "CCNC(=O)Oc1ccc(/C(=C(/C)Cc2ccc(OC)cc2)c2ccc(OCCN(CC)CC)cc2)cc1"
  qualitative_label: "Y"

Query block: Confirm if growth reported for the compound "N=C(N)SCc1c2ccccc2c(CSC(=N)N)c2ccccc12" is 50% or above.
Result block: Y

Query block: Then what about the compound CCCCCCCCCCCCCCCC(=O)O[C@@H]1[C@@H](O)[C@@H](O)C([C@H](NC(=O)[C@@H]2C[C@@H](CCC)CN2C)[C@H](C)Cl)O[C@@H]1SC (some centres not stated) ?
Result block: Y

###

Test system: HT29 colon
protocol_details: NCI-60 one-dose screen, 48 h (100 = growth as untreated, 0 = no growth, -100 = all killed)
conditions_used: 10 µM unless noted
This is part of a sample that, as a whole, favours compounds with a hit. Of some 83,000 tested, about 20% had one in any assay. Active and inactive are the calls of the source. The calls were made as follows: active = growth percent below 10; inactive = the rest.
quantity_measured: growth

- molecule: "N=C(N)c1ccc(-c2ccc(-c3ccc(F)cc3)s2)nc1"
  growth: "8.67% (active)"
- molecule: "CCC(=C(c1ccc(OCCCN(C)C)cc1)c1ccc(OCCCN(C)C)cc1)c1ccc(Cl)cc1"
  growth: "-74.5% (active)"

Below are 8 molecules. Give each one its growth.
1. BrC1=C(Br)C(Br)(Br)C(Br)=C1Br
2. C/C=C(/C)C(=O)O[C@@H]1CC(C)(C)CC2C34OC(=O)[C@@]21CC[C@@]3(C)[C@]1(C)CCC2C(C)(C)C(=O)CC[C@]2(C)C1C[C@@H]4Cl (some centres not stated)
3. Cn1c(=O)c2c(nc(Nc3cc(=O)[nH]c(=O)[nH]3)n2Cc2ccccc2)n(C)c1=O
4. Nc1ncc(-c2ccc3ncnc(N4CCc5ccc(Cl)cc54)c3c2)cc1C(F)(F)F
5. Cc1ccc(-c2nc3nc(-c4ccccc4)nc(N4CCN(S(=O)(=O)c5ccccc5)CC4)c3o2)cc1
6. Nc1ncnc2c1C(c1ccc([N+](=O)[O-])cc1)c1sc3c(F)cccc3c1O2 (configuration not stated)
7. CCN(CC)CC(=O)Nc1ccc2ncnc(Nc3ccc(Oc4cccc(F)c4)c(Cl)c3)c2c1
8. Nc1nc2ccccc2c2c(=O)c3ccc(Cl)cc3sc12

Result block:
1. 63.9% (inactive)
2. 98% (inactive)
3. -4.46% (active)
4. 9.27% (active)
5. 97.7% (inactive)
6. 112% (inactive)
7. 14.4% (inactive)
8. 98% (inactive)
